- protocol_summary: Plasma Stability Assay of Example A3, mouse plasma
- study_conditions: 15 min; 5 μM, 37° C.; % of prodrug compound remaining
measured_metric: Mouse Plasma Prodrug (%)
Number in %, nothing else.

Sample records with Mouse Plasma Prodrug (%):
{"compound": "COc1ccc([C@@]23CCC(OC(=O)c4cccc(C)c4C)=C[C@@H]2N(C)CC3)cc1OC [Compound 373]", "unit_symbol": "%", "Mouse Plasma Prodrug (%)": 82}
{"compound": "C=C(C)C(=O)OC1=C[C@@H]2N(C)CC[C@]2(c2ccc(OC)c(OC)c2)CC1 [Compound 315]", "unit_symbol": "%", "Mouse Plasma Prodrug (%)": 5.3}
{"compound": "COc1ccc([C@@]23CCC(OC(=O)c4cccc(C)c4)=C[C@@H]2N(C)CC3)cc1OC [Compound 374]", "unit_symbol": "%", "Mouse Plasma Prodrug (%)": 33}
{"compound": "C/C=C(\\C)C(=O)OC1=C[C@@H]2N(C)CC[C@]2(c2ccc(OC)c(OC)c2)CC1 [Compound 313]", "unit_symbol": "%", "Mouse Plasma Prodrug (%)": 2.1}
{"compound": "COc1ccc([C@@]23CCC(OC(=O)c4ccc(C#N)cc4)=C[C@@H]2N(C)CC3)cc1OC [Compound 354]", "unit_symbol": "%", "Mouse Plasma Prodrug (%)": 5}
{"compound": "COc1ccc([C@@]23CCC(OC(=O)c4ccc(N(C)C)cc4)=C[C@@H]2N(C)CC3)cc1OC [Compound 355]", "unit_symbol": "%", "Mouse Plasma Prodrug (%)": 50.6}
{"compound": "COc1ccc([C@@]23CCC(OC(=O)C4CC4)=C[C@@H]2N(C)CC3)cc1OC [Compound 312]", "unit_symbol": "%", "Mouse Plasma Prodrug (%)": 3.5}
{"compound": "COc1ccc([C@@]23CCC(OC(=O)c4ccc(F)cc4)=C[C@@H]2N(C)CC3)cc1OC [Compound 353]", "unit_symbol": "%", "Mouse Plasma Prodrug (%)": 0}
{"compound": "COc1ccc([C@@]23CCC(OC(=O)c4cccc(N(C)C)c4)=C[C@@H]2N(C)CC3)cc1OC [Compound 307]", "unit_symbol": "%", "Mouse Plasma Prodrug (%)": 18.1}
{"compound": "COc1ccc([C@@]23CCC(OC(=O)C(C)(C)C)=C[C@@H]2N(C)CC3)cc1OC [Compound 309]", "unit_symbol": "%", "Mouse Plasma Prodrug (%)": 34.6}

Consider the additional compound presented here.
Return the recorded Mouse Plasma Prodrug (%) value; entry: COc1ccc([C@@]23CCC(OC(=O)c4ccc(C(C)C)cc4)=C[C@@H]2N(C)CC3)cc1OC [Compound 371]
10
